System: 171881-019-R-J1-PDC tumor spheroid viability
Experiment: Anticancer human tumor 171881-019-R-J1-PDC patient-derived invasive breast carcinoma cell line growth inhibition [PI3K]; active = viability on the fitted dose curve at most 10% of control; inactive = the rest
Settings: second compound 1 µM; first compound 1 µM; spheroids with HUVEC and MSC
Form entry, call: pick from y = active, n = inactive

Ask: // param item: Cn1ncc(Cl)c1-c1cc(C(=O)NC(CN)Cc2cccc(F)c2)sc1Cl (stereo not given) + CC(Nc1ccc2c(c1)OCCn1cc(N3C(=O)OCC3C(F)F)nc1-2)C(N)=O ; yields the recorded call
Reply: n

Ask: Also CC(Cn1ccc(-c2ccc(C#N)c(Cl)c2)n1)NC(=O)c1cc(C(C)O)[nH]n1 (stereo not given) + CC(Nc1ncnc2nc[nH]c12)c1cc2cccc(Cl)c2c(=O)n1-c1ccccc1 ?
Reply: n

Ask: Also C#Cc1c(F)ccc2cc(O)cc(-c3ncc4c(N5CC6CCC(C5)N6)nc(OCC56CCCN5CC(F)C6)nc4c3F)c12 (stereo not given) + Cc1nc(NC(=O)N2CCCC2C(N)=O)sc1-c1ccnc(C(C)(C)C(F)(F)F)c1 ?
Reply: y

Ask: Also Cn1ncc(Cl)c1-c1cc(C(=O)NC(CN)Cc2cccc(F)c2)sc1Cl (stereo not given) + Cc1nc(NC(=O)N2CCCC2C(N)=O)sc1-c1ccnc(C(C)(C)C(F)(F)F)c1 ?
Reply: n

Ask: Also C=CC(=O)N1CCN(c2nc(=O)n(-c3c(C)ccnc3C(C)C)c3nc(-c4c(O)cccc4F)c(F)cc23)C(C)C1 (stereo not given) + Cc1nc(NC(=O)N2CCCC2C(N)=O)sc1-c1ccnc(C(C)(C)C(F)(F)F)c1 ?
Reply: n

----------
Tested on: 171881-019-R-J1-PDC tumor spheroid viability
Experiment: Anticancer human tumor 171881-019-R-J1-PDC cell line growth inhibition [PI3K];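 note: spheroids exposed to compound for 7 days before viability read; 100% = DMSO vehicle-treated spheroids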
Conditions: second compound 0.316 µM; first compound 1 µM; active compounds read low; spheroids with HUVEC and MSC
readout-name: viability, T/C

Ask: Value lookup for viability, T/C; key = CC(Cn1ccc(-c2ccc(C#N)c(Cl)c2)n1)NC(=O)c1cc(C(C)O)[nH]n1 (configuration not stated) + COc1c(OCCCN2CCOCC2)ccc2c3n(c(=NC(=O)c4cnc(N)nc4)nc12)CCN3
Reply: 1.44%

Ask: Also Cn1ncc(Cl)c1-c1cc(C(=O)NC(CN)Cc2cccc(F)c2)sc1Cl (configuration not stated) + CC(Nc1ncnc2nc[nH]c12)c1cc2cccc(Cl)c2c(=O)n1-c1ccccc1 ?
Reply: 21.4%

Ask: Also CC(C)NCC(C(=O)N1CCN(c2ncnc3c2C(C)CC3O)CC1)c1ccc(Cl)cc1 (configuration not stated) + CC(Nc1ccc2c(c1)OCCn1cc(N3C(=O)OCC3C(F)F)nc1-2)C(N)=O ?
Reply: 16.4%

Ask: Also CC1(C)CCC(CN2CCN(c3ccc(C(=O)NS(=O)(=O)c4ccc(NCC5CCOCC5)c([N+](=O)[O-])c4)c(Oc4cnc5[nH]ccc5c4)c3)CC2)=C(c2ccc(Cl)cc2)C1 + CC(Nc1ccc2c(c1)OCCn1cc(N3C(=O)OCC3C(F)F)nc1-2)C(N)=O ?
Reply: 28.3%

Ask: Also CC1(C)CCC(Nc2ncc(C(F)(F)F)c(-c3c[nH]c4c(P(C)(C)=O)c(C#N)ccc34)n2)CN1 (configuration not stated) + CC(Nc1ncnc2nc[nH]c12)c1cc2cccc(Cl)c2c(=O)n1-c1ccccc1 ?
Reply: 83.2%

Ask: Also CC(C)NCC(C(=O)N1CCN(c2ncnc3c2C(C)CC3O)CC1)c1ccc(Cl)cc1 (configuration not stated) + COc1c(OCCCN2CCOCC2)ccc2c3n(c(=NC(=O)c4cnc(N)nc4)nc12)CCN3 ?
Reply: 2.16%

Ask: Also CNC(=O)c1ccc(N2C(=S)N(c3ccc(C#N)c(C(F)(F)F)c3)C(=O)C2(C)C)cc1F + CC(Nc1ccc2c(c1)OCCn1cc(N3C(=O)OCC3C(F)F)nc1-2)C(N)=O ?
Reply: 28.5%

Ask: Also CC1(C)CCC(Nc2ncc(C(F)(F)F)c(-c3c[nH]c4c(P(C)(C)=O)c(C#N)ccc34)n2)CN1 (configuration not stated) + CC(Nc1ccc2c(c1)OCCn1cc(N3C(=O)OCC3C(F)F)nc1-2)C(N)=O ?
Reply: 29.4%

Ask: Also CNC(=O)c1ccc(N2C(=S)N(c3ccc(C#N)c(C(F)(F)F)c3)C(=O)C2(C)C)cc1F + Cc1nc(NC(=O)N2CCCC2C(N)=O)sc1-c1ccnc(C(C)(C)C(F)(F)F)c1 ?
Reply: 52.5%

Ask: Also CCCS(=O)(=O)Nc1ccc(F)c(C(=O)c2c[nH]c3ncc(-c4ccc(Cl)cc4)cc23)c1F + COc1c(OCCCN2CCOCC2)ccc2c3n(c(=NC(=O)c4cnc(N)nc4)nc12)CCN3 ?
Reply: 2.63%

Ask: Also CCN1CCN(Cc2ccc(Nc3ncc(F)c(-c4cc(F)c5nc(C)n(C(C)C)c5c4)n3)nc2)CC1 + Cc1nc(NC(=O)N2CCCC2C(N)=O)sc1-c1ccnc(C(C)(C)C(F)(F)F)c1 ?
Reply: 83.3%

Ask: Also CCCS(=O)(=O)Nc1ccc(F)c(C(=O)c2c[nH]c3ncc(-c4ccc(Cl)cc4)cc23)c1F + Cc1nc(NC(=O)N2CCCC2C(N)=O)sc1-c1ccnc(C(C)(C)C(F)(F)F)c1 ?
Reply: 87.1%

Ask: Also C=CC(=O)N1CCN(c2nc(=O)n(-c3c(C)ccnc3C(C)C)c3nc(-c4c(O)cccc4F)c(F)cc23)C(C)C1 (configuration not stated) + COc1c(OCCCN2CCOCC2)ccc2c3n(c(=NC(=O)c4cnc(N)nc4)nc12)CCN3 ?
Reply: 2.25%

Ask: Also CC(Cn1ccc(-c2ccc(C#N)c(Cl)c2)n1)NC(=O)c1cc(C(C)O)[nH]n1 (configuration not stated) + Cc1nc(NC(=O)N2CCCC2C(N)=O)sc1-c1ccnc(C(C)(C)C(F)(F)F)c1 ?
Reply: 57.7%

Ask: Also C=CC(=O)N1CCN(c2nc(=O)n(-c3c(C)ccnc3C(C)C)c3nc(-c4c(O)cccc4F)c(F)cc23)C(C)C1 (configuration not stated) + Cc1nc(NC(=O)N2CCCC2C(N)=O)sc1-c1ccnc(C(C)(C)C(F)(F)F)c1 ?
Reply: 60.4%

Ask: Also C[C@@H](NC(=O)c1ncnc(N)c1Cl)c1ncc(C(=O)Nc2cc(C(F)(F)F)c(Cl)cn2)s1 + CC(Nc1ccc2c(c1)OCCn1cc(N3C(=O)OCC3C(F)F)nc1-2)C(N)=O ?
Reply: 23%

Ask: Also Cn1ncc(Cl)c1-c1cc(C(=O)NC(CN)Cc2cccc(F)c2)sc1Cl (configuration not stated) + Cc1nc(NC(=O)N2CCCC2C(N)=O)sc1-c1ccnc(C(C)(C)C(F)(F)F)c1 ?
Reply: 16.3%
